Tested on: Klebsiella pneumoniae
Assay: Broth microdilution MIC (Example 12)
Assay type: cell-based
Conditions: K. pneumoniae MMX 9029; ESBL
OBSERVED_PROPERTY: MIC (µg/mL)
Report the value in µg/mL with no unit label.

As a guide, the following entries are already answered.
SMILES_STRING | MIC, µg/mL
C[C@@H](O)[C@H]1C(=O)N2C(C(=O)O)=C(S[C@@H]3CN[C@H](C(=O)N(C)C)C3)[C@H](C)[C@H]12 | 0.015
NCC[C@H](O)C(=O)N[C@@H]1C[C@H](N)[C@@H](O[C@H]2O[C@H](CN)[C@@H](O)[C@H](O)[C@H]2O)[C@H](O)[C@H]1O[C@H]1O[C@H](CO)[C@@H](O)[C@H](N)[C@H]1O | 0.5
CC(C)(O/N=C(\C(=O)N[C@@H]1C(=O)N2C(C(=O)[O-])=C(C[n+]3ccccc3)CS[C@H]12)c1csc(N)n1)C(=O)O | 4

# next compound below
Quick check: MIC of C[C@H]1COc2c(N3CCN(C)CC3)c(F)cc3c(=O)c(C(=O)O)cn1c23 ?
0.12

====

The compounds listed here are annotated with their MIC.
Test system: Pseudomonas aeruginosa
Experiment: Broth microdilution MIC (Example 12)
Format: cell-based
Conditions: P. aeruginosa CDC 246; NDM/OXA

As a guide, the following entries are already answered.
SMILES_STRING | MIC
C[C@@H](O)[C@H]1C(=O)N2C(C(=O)O)=C(S[C@@H]3CN[C@H](C(=O)N(C)C)C3)[C@H](C)[C@H]12 | >8 µg/mL
C[C@H]1COc2c(N3CCN(C)CC3)c(F)cc3c(=O)c(C(=O)O)cn1c23 | >8 µg/mL
NCC[C@H](O)C(=O)N[C@@H]1C[C@H](N)[C@@H](O[C@H]2O[C@H](CN)[C@@H](O)[C@H](O)[C@H]2O)[C@H](O)[C@H]1O[C@H]1O[C@H](CO)[C@@H](O)[C@H](N)[C@H]1O | >64 µg/mL

# next compound below
Quick check: MIC of CC(C)(O/N=C(\C(=O)N[C@@H]1C(=O)N2C(C(=O)[O-])=C(C[n+]3ccccc3)CS[C@H]12)c1csc(N)n1)C(=O)O ?
>64 µg/mL

====

System: Haemophilus influenzae
Test: Broth microdilution MIC, Haemophilus influenzae clinical isolates
Assay type: cell-based
Conditions: H. influenzae MMX 5499
OBSERVED_PROPERTY: MIC (µg/mL)
Report the value in µg/mL with no unit label.

As a guide, the following entries are already answered.
COMPOUND | MEASURED_NUMBER
C[C@H]1COc2c(N3CCN(C)CC3)c(F)cc3c(=O)c(C(=O)O)cn1c23 [LEV] | 0.015
CC[C@H]1OC(=O)[C@H](C)[C@@H](O[C@H]2C[C@@](C)(OC)[C@@H](O)[C@H](C)O2)[C@H](C)[C@@H](O[C@@H]2O[C@H](C)C[C@H](N(C)C)[C@H]2O)[C@](C)(O)C[C@@H](C)CN(C)[C@H](C)[C@@H](O)[C@]1(C)O [AZM] | 2
CC1(C)S[C@@H]2[C@H](NC(=O)[C@H](N)c3ccccc3)C(=O)N2[C@H]1C(=O)O [AMP] | 0.25

Quick check: MIC of CO/N=C(\C(=O)N[C@@H]1C(=O)N2C(C(=O)O)=C(COC(N)=O)CS[C@H]12)c1ccco1 [CFA] ?
1

====

Test: Particle size distribution of BisEDT samples vs processing conditions
Format: physicochemical
Details: crystalline BisEDT samples
The compounds listed here are annotated with their D(90).
Report the value in μm with no unit label.

As a guide, the following entries are already answered.
COMPOUND | OBSERVED_PROPERTY | MEASURED_NUMBER
C1C[S][Bi]([S]CC[S][Bi]2[S]CC[S]2)[S]1 [Sample 15] | D(90) | 1.6
C1C[S][Bi]([S]CC[S][Bi]2[S]CC[S]2)[S]1 [Sample 7] | D(90) | 1.6
C1C[S][Bi]([S]CC[S][Bi]2[S]CC[S]2)[S]1 [Sample 6] | D(90) | 1.8

Quick check: D(90) of C1C[S][Bi]([S]CC[S][Bi]2[S]CC[S]2)[S]1 [Sample 9] ?
1.9

Quick check: D(90) of C1C[S][Bi]([S]CC[S][Bi]2[S]CC[S]2)[S]1 [Sample 4] ?
3.1

Quick check: D(90) of C1C[S][Bi]([S]CC[S][Bi]2[S]CC[S]2)[S]1 [Sample 1] ?
5.9

Quick check: D(90) of C1C[S][Bi]([S]CC[S][Bi]2[S]CC[S]2)[S]1 [Sample 5] ?
1.6

Quick check: D(90) of C1C[S][Bi]([S]CC[S][Bi]2[S]CC[S]2)[S]1 [Sample 13] ?
2.1

Quick check: D(90) of C1C[S][Bi]([S]CC[S][Bi]2[S]CC[S]2)[S]1 [Sample 11] ?
2.4

Quick check: D(90) of C1C[S][Bi]([S]CC[S][Bi]2[S]CC[S]2)[S]1 [Sample 3] ?
4.5

Quick check: D(90) of C1C[S][Bi]([S]CC[S][Bi]2[S]CC[S]2)[S]1 [Sample 2] ?
3.9

Quick check: D(90) of C1C[S][Bi]([S]CC[S][Bi]2[S]CC[S]2)[S]1 [Sample 10] ?
1.7

Quick check: D(90) of C1C[S][Bi]([S]CC[S][Bi]2[S]CC[S]2)[S]1 [Sample 8] ?
1.8

Quick check: D(90) of C1C[S][Bi]([S]CC[S][Bi]2[S]CC[S]2)[S]1 [Sample 12] ?
2.4

Quick check: D(90) of C1C[S][Bi]([S]CC[S][Bi]2[S]CC[S]2)[S]1 [Sample 14] ?
2.1

====

Assay: Particle size distribution of BisEDT samples vs processing conditions
Assay type: physicochemical
Settings: crystalline BisEDT samples
Label 1 when D(10) is strictly below 0.4 μm; at or above that, label 0.

Example results:
COMPOUND | CLASS_NAME
C1C[S][Bi]([S]CC[S][Bi]2[S]CC[S]2)[S]1 [Sample 11] | 1
C1C[S][Bi]([S]CC[S][Bi]2[S]CC[S]2)[S]1 [Sample 6] | 1
C1C[S][Bi]([S]CC[S][Bi]2[S]CC[S]2)[S]1 [Sample 5] | 1
C1C[S][Bi]([S]CC[S][Bi]2[S]CC[S]2)[S]1 [Sample 13] | 1

Attention now shifts to the item below.
Identify whether the compound C1C[S][Bi]([S]CC[S][Bi]2[S]CC[S]2)[S]1 [Sample 4] records D(10) below 0.4 μm.
0
